Source: patent US6677361B2

- Tested on: hairless mice
- testName: Erythematous response after topical application of nicotinic acid esters to hairless mice
- Format: in vivo
- conditionContext: topical, 0.5 to 2.0% (wt/wt) in 200 mg lotion daily for one week, hairless mice
measurementLabel: Erythematous Response

Solved entries:
molecule=CCCCCCCCOC(=O)c1cccnc1 measuredtarget="hairless mice" measurementlabel="Erythematous Response" observedvalue=Yes
molecule=CCCCCCCCCCCCCCCCOC(=O)c1cccnc1 measuredtarget="hairless mice" measurementlabel="Erythematous Response" observedvalue=No
molecule=CCOC(=O)c1cccnc1 measuredtarget="hairless mice" measurementlabel="Erythematous Response" observedvalue=Yes
molecule="CCCCCCCCCCCCOC(=O)c1cccnc1 [12 carbons, lauryl nicotinate]" measuredtarget="hairless mice" measurementlabel="Erythematous Response" observedvalue=No
molecule=CCCCOC(=O)c1cccnc1 measuredtarget="hairless mice" measurementlabel="Erythematous Response" observedvalue=Yes

Shifting focus to the molecule that follows.
Form field: reported Erythematous Response of CCCCCCCCCCCCCCOC(=O)c1cccnc1 [14 carbons, myristyl nicotinate]
No

---

- Test system: hairless mice
- testName: Erythematous response after topical application of nicotinic acid esters to hairless mice
- Assay type: in vivo
- conditionContext: topical, 0.5 to 2.0% (wt/wt) in 200 mg lotion daily for one week, hairless mice
measurementLabel: Erythematous Response

Solved entries:
compound="COC(=O)c1cccnc1 [1 carbon]" observedvalue=Yes
compound="CCCCCCCCCCCCCCCOC(=O)c1cccnc1 [15 carbons]" observedvalue=No
compound="CCCCCCOC(=O)c1cccnc1 [6 carbons]" observedvalue=Yes
compound="CCCCCCCCCCCCCCCCCCOC(=O)c1cccnc1 [18 carbons]" observedvalue=No

Shifting focus to the compound that follows.
Form field: reported Erythematous Response of CCCCCCCCCCCCCOC(=O)c1cccnc1 [13 carbons]
No
